system-tested: Muscarinic acetylcholine receptor
run-description: Binding affinity to muscarinic acetylcholine receptor was determined in presence of [3H]OXO-M radioligand (in vitro)
Assay type: protein assay
Under this convention, yes denotes Ki strictly below 4 nM and no denotes Ki at or above 4 nM.

Illustrative cases are given below, each with its answer.
molecule: CCOC(=O)N(C)C(C)C#CCn1ccnc1 (stereo unspecified)
category: no

molecule: CN1CCN(CC#CCn2ccnc2)C1=O
category: yes

molecule: CN(C)CC#CCn1ccn(C)c1=O
category: no

molecule: CC(C#CCN(C)C)N1CCCC1=O (stereo unspecified)
category: no

Determine if COC(=O)N(C)C(C)C#CCN(C)C (stereo unspecified) shows Ki strictly lower than 4 nM.
no

Determine if CC(=O)N(C)C(C)C#CCn1ccnc1C (stereo unspecified) shows Ki strictly lower than 4 nM.
yes

Determine if CC1CCC(=O)N1CC#CCn1ccnc1 (stereo unspecified) shows Ki strictly lower than 4 nM.
no

Determine if CN(C)CC#CCN1CCNC1=O shows Ki strictly lower than 4 nM.
no

Determine if CC(C#CCN1CCCC1)N1CCN(C)C1=O (stereo unspecified) shows Ki strictly lower than 4 nM.
no

Determine if CC1CCC(=O)N1CC#CCN1CCCC1 (stereo unspecified) shows Ki strictly lower than 4 nM.
yes

Determine if Cn1ccn(CC#CCN2CCCC2)c1=O shows Ki strictly lower than 4 nM.
no

Determine if CC(=O)N(C)CC#CCN1CCCC1 shows Ki strictly lower than 4 nM.
yes

Determine if CCOC(=O)N(C)CC#CCN1CCCC1 shows Ki strictly lower than 4 nM.
no

Determine if Cc1cncn1CC#CCn1ccn(C)c1=O shows Ki strictly lower than 4 nM.
no

Determine if COC(=O)N(C)C(C)C#CCn1cncc1C (stereo unspecified) shows Ki strictly lower than 4 nM.
no

Determine if CC(=O)N(C)CC#CCN(C)C shows Ki strictly lower than 4 nM.
no

Determine if CN(C)CC#CCN1CCN(C)C1=O shows Ki strictly lower than 4 nM.
no

Determine if CCOC(=O)N(C)C(C)C#CCn1cncc1C (stereo unspecified) shows Ki strictly lower than 4 nM.
no

Determine if O=C1CCCN1CC#CCn1cncn1 shows Ki strictly lower than 4 nM.
no

Determine if CC(C#CCn1ccnc1)N1CCCC1=O (stereo unspecified) shows Ki strictly lower than 4 nM.
no

Determine if CCOC(=O)N(C)CC#CCn1cncc1C shows Ki strictly lower than 4 nM.
no

Determine if CN(C)C(=O)N(C)CC#CCn1ccnc1 shows Ki strictly lower than 4 nM.
no

Determine if CC1CCC(=O)N1CC#CCN(C)C (stereo unspecified) shows Ki strictly lower than 4 nM.
no

###

system-tested: Muscarinic acetylcholine receptor
run-description: Binding affinity to muscarinic acetylcholine receptor was determined in presence of [3H]OXO-M radioligand (in vitro)
Format: protein assay
Listing: Ki of selected compounds
Your answer is read as nM, so omit the unit and give the number.

Example entries begin here.
compound: CN(C)CC#CCN1CCCC1=O
assay-metric: Ki
readout-units: nM
numeric-result: 1.1
--
compound: Cc1cncn1CC#CCN1CCN(C)C1=O
assay-metric: Ki
readout-units: nM
numeric-result: 8.6
--
compound: COC(=O)NCC#CCn1cncc1C
assay-metric: Ki
readout-units: nM
numeric-result: 191
--
compound: CC(=O)N(C)C(C)C#CCn1cncc1C (configuration not stated)
assay-metric: Ki
readout-units: nM
numeric-result: 10
--
compound: CC(C#CCN1CCCC1)N1CCCC1=O (configuration not stated)
assay-metric: Ki
readout-units: nM
numeric-result: 1.1
--
compound: Cc1nccn1CC#CCN1CCCC1=O
assay-metric: Ki
readout-units: nM
numeric-result: 0.3
--
compound: COC(=O)N(C)CC#CCn1ccnc1
assay-metric: Ki
readout-units: nM
numeric-result: 10.2
--
compound: O=C1NCCN1CC#CCN1CCCC1
assay-metric: Ki
readout-units: nM
numeric-result: 13
--
compound: Cc1cn(CC#CCN2CCCC2=O)c(C)n1
assay-metric: Ki
readout-units: nM
numeric-result: 68
--
compound: O=C1CCCN1CC#CCn1ccnc1
assay-metric: Ki
readout-units: nM
numeric-result: 1.3

Proceeding to the next compound to report its Ki.
Entry O=C1OCCN1CC#CCN1CCCC1 , Muscarinic acetylcholine receptor data, Ki value: 8.9

###

system-tested: Muscarinic acetylcholine receptor
run-description: Binding affinity to muscarinic acetylcholine receptor was determined in presence of [3H]OXO-M radioligand (in vitro)
Assay type: protein assay
Listing: Ki of selected compounds
Your answer is read as nM, so omit the unit and give the number.

compound: CC(=O)N(C)CC#CCn1cncc1C
assay-metric: Ki
readout-units: nM
numeric-result: 3.61

compound: Cc1cncn1CC#CCN1C(=O)CCC1C (stereo not drawn)
assay-metric: Ki
readout-units: nM
numeric-result: 1.68

compound: Cc1c[n+](C)cn1CC#CCN1CCCC1=O.[I-]
assay-metric: Ki
readout-units: nM
numeric-result: 53

compound: CC(=O)N(C)C(C)C#CCn1ccnc1 (stereo not drawn)
assay-metric: Ki
readout-units: nM
numeric-result: 12

compound: Cc1cncn1CC#CCN1CCNC1=O
assay-metric: Ki
readout-units: nM
numeric-result: 138

Entry CN1CCN(CC#CCN2CCCC2)C1=O , Muscarinic acetylcholine receptor data, Ki value: 2.7

Entry O=C1NCCN1CC#CCn1ccnc1 , Muscarinic acetylcholine receptor data, Ki value: 62

###

system-tested: Muscarinic acetylcholine receptor
run-description: Binding affinity to muscarinic acetylcholine receptor was determined in presence of [3H]OXO-M radioligand (in vitro)
Type: protein assay
Under this convention, fulfilled denotes Ki strictly below 20 nM and not fulfilled denotes Ki at or above 20 nM.

compound: O=C1CCCN1CC#CCn1cnc2ccccc21
category: not fulfilled

compound: COC(=O)N(C)CC#CCn1cncc1C
category: not fulfilled

Determine if COC(=O)N(C)C(C)C#CCN1CCCC1 (stereo unspecified) shows Ki strictly lower than 20 nM.
fulfilled

Determine if COC(=O)N(C)C(C)C#CCn1ccnc1 (stereo unspecified) shows Ki strictly lower than 20 nM.
fulfilled

Determine if Cc1cncn1CC#CCN1CCOC1=O shows Ki strictly lower than 20 nM.
fulfilled

Determine if Cc1cncn1CC#CC(C)N1CCCC1=O (stereo unspecified) shows Ki strictly lower than 20 nM.
fulfilled

The measured values listed here are drawn from ChEMBL document CHEMBL1125599.
